target_entity: Glucocorticoid receptor (Homo sapiens)
Sequence (P04150 whole entry): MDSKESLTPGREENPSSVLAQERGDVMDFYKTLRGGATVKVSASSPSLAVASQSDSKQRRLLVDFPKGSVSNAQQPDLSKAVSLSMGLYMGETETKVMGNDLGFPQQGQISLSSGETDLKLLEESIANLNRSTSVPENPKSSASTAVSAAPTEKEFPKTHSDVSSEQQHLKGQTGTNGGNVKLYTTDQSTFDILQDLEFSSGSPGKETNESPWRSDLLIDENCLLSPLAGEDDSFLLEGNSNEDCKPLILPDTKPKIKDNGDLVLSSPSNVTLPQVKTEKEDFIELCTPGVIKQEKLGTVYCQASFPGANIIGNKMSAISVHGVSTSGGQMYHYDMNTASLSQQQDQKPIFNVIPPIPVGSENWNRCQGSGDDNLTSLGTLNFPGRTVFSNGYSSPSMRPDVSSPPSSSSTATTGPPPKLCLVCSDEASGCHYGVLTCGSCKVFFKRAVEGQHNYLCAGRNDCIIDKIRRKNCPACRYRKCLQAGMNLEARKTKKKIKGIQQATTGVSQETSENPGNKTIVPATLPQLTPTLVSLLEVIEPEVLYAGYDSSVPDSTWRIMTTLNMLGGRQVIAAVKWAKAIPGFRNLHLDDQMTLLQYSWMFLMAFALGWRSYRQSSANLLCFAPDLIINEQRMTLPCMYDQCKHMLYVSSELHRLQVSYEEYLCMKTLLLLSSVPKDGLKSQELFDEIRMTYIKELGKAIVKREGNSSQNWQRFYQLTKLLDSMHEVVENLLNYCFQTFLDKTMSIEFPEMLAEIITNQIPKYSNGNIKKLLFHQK
Listed below are compounds with Ki for Glucocorticoid receptor (Homo sapiens), each taken from published literature.
Number only, in nM; omit the unit.

Worked examples, 3 compounds total:
CC(C)(C(=O)NC(N)=O)[C@@H]1c2ccc(-c3ccc(C(=O)N4CCOCC4)cc3)nc2Oc2c(F)cccc21 | 2.1
COc1c(O)ccc2c1-c1ccc3c(c1/C(=C/c1cccc(C(F)(F)F)c1C)O2)C(C)=CC(C)(C)N3 | 2.6
CNC(=O)C[C@H]1COc2cc(F)c(OC(C)C)cc2N1C(=O)c1ccc2c(c1)NC(=O)CO2 | 79.4

Glucocorticoid receptor (Homo sapiens) Ki of `CC(C)(C(=O)NC(N)=O)[C@@H]1c2ccc(-c3ccc(C(=O)N4CCCC4)cc3)nc2Oc2c(F)cccc21` is 0.7

Item: CC(C)(C(=O)Nc1nccs1)C(c1ccccc1)c1ccc2c(-c3ccc(F)cc3)ncn2c1 (stereo not drawn) | System: Glucocorticoid receptor (Homo sapiens) | Ki: 3

The reported Ki value, Glucocorticoid receptor (Homo sapiens), for `CC(C)(C)C(=O)NCC(C)(C)[C@@H](c1ccccc1)c1ccc2c(cnn2-c2ccc(F)cc2)c1` reads 2

Measured Ki (Glucocorticoid receptor (Homo sapiens)), entry `C[C@H]1c2c(cc(F)c(-c3cccc4cc[nH]c34)c2F)NC(C)(C)[C@@H]1OC(=O)Nc1ccc(N(C)C)cc1` : 5.1

* * *

Reported Ki against Glucocorticoid receptor (Homo sapiens, UniProt P04150), gathered from multiple publications, appears below.
target_entity: Glucocorticoid receptor (Homo sapiens, UniProt P04150)
Sequence (P04150 whole entry): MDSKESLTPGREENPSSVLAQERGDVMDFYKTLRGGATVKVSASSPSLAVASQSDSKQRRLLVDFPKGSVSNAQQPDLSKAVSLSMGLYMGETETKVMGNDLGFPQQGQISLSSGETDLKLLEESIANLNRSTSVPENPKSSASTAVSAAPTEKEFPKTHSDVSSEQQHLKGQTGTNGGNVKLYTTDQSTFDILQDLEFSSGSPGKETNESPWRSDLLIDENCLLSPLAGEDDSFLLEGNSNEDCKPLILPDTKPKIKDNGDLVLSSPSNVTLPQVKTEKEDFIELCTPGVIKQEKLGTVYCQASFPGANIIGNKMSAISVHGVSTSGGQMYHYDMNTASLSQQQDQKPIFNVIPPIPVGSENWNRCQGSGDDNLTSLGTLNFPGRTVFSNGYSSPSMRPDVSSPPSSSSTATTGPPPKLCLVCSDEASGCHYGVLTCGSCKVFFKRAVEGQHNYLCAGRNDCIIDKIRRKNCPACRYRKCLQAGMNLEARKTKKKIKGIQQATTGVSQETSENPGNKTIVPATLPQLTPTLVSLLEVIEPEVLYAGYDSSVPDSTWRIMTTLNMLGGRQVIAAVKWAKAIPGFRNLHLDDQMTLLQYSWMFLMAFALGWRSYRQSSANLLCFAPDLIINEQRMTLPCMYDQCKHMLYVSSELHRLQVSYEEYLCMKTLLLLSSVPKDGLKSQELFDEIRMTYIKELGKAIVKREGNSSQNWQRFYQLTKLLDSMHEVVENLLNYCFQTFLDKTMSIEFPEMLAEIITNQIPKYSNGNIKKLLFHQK
Records here are stratified by Ki; strata: bottom range = under 4 nM, center range = from 4 nM up to 40 nM, top range = 40 nM and over

Below, 3 molecules whose answers are already recorded.
NS(=O)(=O)C[C@H]1COc2cc(F)ccc2N1C(=O)c1ccc2c(c1)NCCO2 | top range
COc1c(O)ccc2c1-c1ccc3c(c1/C(=C/c1cccc(-c4ccccc4)c1)O2)C(C)=CC(C)(C)N3 | center range
CC1=CC(C)(C)Nc2ccc3c(c21)C(c1cc(C)cc(Br)c1)Oc1ccccc1-3 (centres undefined) | top range

Exam item: Hey, which category is `CC(C)(CNS(=O)(=O)C1CC1)[C@@H](c1ccccc1)c1ccc2c(cnn2-c2ccc(F)cc2)c1` in, do you know?
Marked response: bottom range

Exam item: Pick a category. Item: CCCCC1Oc2ccc(F)cc2-c2ccc3c(c21)C(C)=CC(C)(C)N3 (centres undefined)
Marked response: top range

Exam item: Lab note: which band did CC(c1ccc(F)cc1)(c1c[nH]c2c(NS(C)(=O)=O)cccc12)C1CC1 (centres undefined) land in?
Marked response: center range

Exam item: Place this molecule in its band: C[C@H]1c2c(cc(F)c(-c3cccc4c(Cl)c[nH]c34)c2F)NC(C)(C)[C@@H]1OC(=O)NC1CCCCC1 (racemic)
Marked response: center range

Exam item: For C/C=C/C1Oc2cccc(OC)c2-c2ccc3c(c21)C(C)=CC(C)(C)N3 (centres undefined) , which Ki bin applies?
Marked response: center range

Exam item: Band for the recorded Ki of `COc1ccc(-c2ccc3c(n2)Oc2ccccc2[C@@H]3C(C)(C)C(=O)Nc2nncs2)cc1` ?
Marked response: bottom range
